Experiment: Antiproliferative activity against human HT-29 cells assessed as cell viability at 300 uM after 72 hrs under normoxic conditions by MTT assay relative to control
Assay type: cell-based
Settings: read-out: Activity
Please note: viability at 72 h, 300 µM exactly at 70% is F. Only values below 70% get T.

Here's what some known entries look like.
molecule | label class
O=c1[nH]c2cc(C(F)(F)F)c([N+](=O)[O-])cc2c(=O)n1O | T
O=C(NCc1ccccc1)Nc1ccc2[nH]c(=O)n(O)c(=O)c2c1 | T

Data request: I wonder whether "O=c1[nH]c2cc(Cl)cc(Cl)c2c(=O)n1O" has viability at 72 h, 300 µM below 70%. Can you tell?
Data returned: F

Data request: Input "O=c1[nH]c2ccc([N+](=O)[O-])cc2c(=O)n1O" ; condition: viability at 72 h, 300 µM strictly below 70%. Does it hold?
Data returned: F

Data request: Regarding CC(=O)Nc1nnc(S(N)(=O)=O)s1 [ACETAZOLAMIDE] , kindly confirm whether its viability at 72 h, 300 µM is beneath 70%.
Data returned: F

Data request: Given "O=c1[nH]c2cc(Cl)c(Cl)cc2c(=O)n1O" , is recorded viability at 72 h, 300 µM strictly lower than 70%?
Data returned: T
